B1: CPEB3 Ribozyme (parent)
chain: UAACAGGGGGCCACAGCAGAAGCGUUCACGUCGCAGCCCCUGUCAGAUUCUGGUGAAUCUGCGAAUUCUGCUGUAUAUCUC

# Variants of: B1
# TEST_DESCRIPTION: self-cleavage, relative activity (ratio to wild type); higher = more cleavage; in vitro, sequencing
Below: a set of entries, each annotated with reported self-cleavage.
MEASUREMENT_NAME: self-cleavage

INSERT INTO assay_data (variant_description, measurement_name, readout_number) VALUES
  ('A47G U60A', 'self-cleavage', 0.41),
  ('U41A U69C', 'self-cleavage', 0.24),
  ('C40U A65G', 'self-cleavage', 0.27),
  ('U1G U41C', 'self-cleavage', 1.01),
  ('G9A A45G', 'self-cleavage', 0.39),
  ('A5C U67C', 'self-cleavage', 0.22),
  ('C17A U60A', 'self-cleavage', 0.26),
  ('U1A G9C', 'self-cleavage', 0.1),
  ('U48A U80C', 'self-cleavage', 0.57),
  ('C29U U60C', 'self-cleavage', 0.24),
  ('U49G U58C', 'self-cleavage', 0.2),
  ('U49C U67C', 'self-cleavage', 0.23),
  ('U41A U54A', 'self-cleavage', 0.27),
  ('A3G C71U', 'self-cleavage', 0.64),
  ('A57G A64U', 'self-cleavage', 0.36),
  ('A2C C23U', 'self-cleavage', 0.25),
  ('U49C U58A', 'self-cleavage', 0.14),
  ('A56U U67G', 'self-cleavage', 0.16),
  ('A57U U66C', 'self-cleavage', 0.33),
  ('A28U G42C', 'self-cleavage', 0.28),
  ('C11G U31G', 'self-cleavage', 0.27),
  ('A5G A47G', 'self-cleavage', 0.65),
  ('U74A A77G', 'self-cleavage', 1.26),
  ('U25C C50G', 'self-cleavage', 0.37),
  ('G30A A57G', 'self-cleavage', 0.29),
  ('A56U C59A', 'self-cleavage', 0.28),
  ('U1A U41G', 'self-cleavage', 0.27),
  ('U58C U66G', 'self-cleavage', 0.23),
  ('A18U G36U', 'self-cleavage', 0.19),
  ('A18C', 'self-cleavage', 0.41),
  ('A20G U25C', 'self-cleavage', 0.3),
  ('A5C A28G', 'self-cleavage', 0.63),
  ('C37A U74C', 'self-cleavage', 0.17),
  ('A15G U31A', 'self-cleavage', 0.63),
  ('A28G U58C', 'self-cleavage', 0.27),
  ('A5U A35G', 'self-cleavage', 1.19),
  ('A56G A64U', 'self-cleavage', 0.3),
  ('C23U U80A', 'self-cleavage', 0.28),
  ('U41C U67G', 'self-cleavage', 0.3),
  ('A18G A77G', 'self-cleavage', 0.78),
  ('A28U U74A', 'self-cleavage', 1.19),
  ('A18G U25A', 'self-cleavage', 0.38),
  ('U60C A77U', 'self-cleavage', 0.55),
  ('A3G A64U', 'self-cleavage', 0.45),
  ('A20G C71A', 'self-cleavage', 0.15),
  ('C62G A64U', 'self-cleavage', 0.32),
  ('C29U A56C', 'self-cleavage', 0.42),
  ('G9A U49A', 'self-cleavage', 0.19),
  ('A13G A75C', 'self-cleavage', 1.03),
  ('U60C U80A', 'self-cleavage', 0.61),
  ('A47G C59G', 'self-cleavage', 0.35),
  ('U69G A75U', 'self-cleavage', 0.78),
  ('G10U G53U', 'self-cleavage', 0.24),
  ('U41A A45C', 'self-cleavage', 0.18),
  ('G22A U69G', 'self-cleavage', 0.06),
  ('C11G A47G', 'self-cleavage', 0.61),
  ('G36A', 'self-cleavage', 0.29),
  ('G16C A77G', 'self-cleavage', 0.21),
  ('A2C U51G', 'self-cleavage', 0.92),
  ('A35C C40A', 'self-cleavage', 0.6),
  ('U69A G73A', 'self-cleavage', 1.16),
  ('U31C A75U', 'self-cleavage', 0.87),
  ('A20C A65G', 'self-cleavage', 0.42),
  ('U31A A65U', 'self-cleavage', 0.37),
  ('A20G U69G', 'self-cleavage', 0.42),
  ('G42A U60C', 'self-cleavage', 0.34),
  ('C29A U41G', 'self-cleavage', 0.43),
  ('A21G U49A', 'self-cleavage', 0.48),
  ('U1G U74C', 'self-cleavage', 1.13),
  ('C11A C44A', 'self-cleavage', 0.13),
  ('U31C U58G', 'self-cleavage', 0.39),
  ('A21U A77G', 'self-cleavage', 0.37),
  ('U26C U43A', 'self-cleavage', 0.26),
  ('A13G C34U', 'self-cleavage', 0.32),
  ('C17A A65U', 'self-cleavage', 0.15),
  ('U1C A20U', 'self-cleavage', 0.29),
  ('U1C C23A', 'self-cleavage', 0.22),
  ('C40U G73C', 'self-cleavage', 1.22),
  ('G19A A77G', 'self-cleavage', 0.3),
  ('U49G A75G', 'self-cleavage', 0.42),
  ('U26C U48A', 'self-cleavage', 0.23),
  ('G53A G73C', 'self-cleavage', 1.14),
  ('A35G U43G', 'self-cleavage', 0.36),
  ('U1C U43A', 'self-cleavage', 1.1),
  ('A20U G52U', 'self-cleavage', 0.38),
  ('U51A C62G', 'self-cleavage', 0.23),
  ('A3G U74C', 'self-cleavage', 1.16),
  ('U51C A65U', 'self-cleavage', 0.27),
  ('G30C U67A', 'self-cleavage', 0.18),
  ('U26A U72A', 'self-cleavage', 0.75),
  ('A13U G42U', 'self-cleavage', 0.12);

meta.source: the RNAGym collection of RNA variant scans (doi:10.1093/nar/gkz1192)
